Reference for the values: ChEMBL document CHEMBL1201862

- Tested on: OVCAR-5
- runDescription: NCI tumour cell line growth inhibition, 48 h
Activity calls are given as the source filed them. Rule as the data show it: active = GI50 up to about 1.1 µM and inactive = higher.
Outcome codes: active, inactive

molecule=Cc1nc(N)c(-c2ccccc2)s1 qualitativelabel=inactive
molecule="[N-]=[N+]=CC(=O)C1CCCN1C(=O)c1ccccc1 (stereo unspecified)" qualitativelabel=inactive
molecule=O=C1c2ccccc2C(=O)N1CCn1ccc(NC(c2ccccc2)(c2ccccc2)c2ccccc2)nc1=O qualitativelabel=inactive
molecule="C=C1NC(=O)C(CC(C(=O)C(=O)Nc2c(C)cccc2C(C)(C)C)C(=O)c2ccc3ccccc3c2)C(=O)N1 (stereo unspecified)" qualitativelabel=inactive
molecule=C/C(=N\NC(N)=S)c1ccc2c(c1)Sc1ccccc1O2 qualitativelabel=inactive
molecule=CCOc1ccc(OCC)c([P+](c2ccccc2)(c2ccccc2)c2ccccc2)c1 qualitativelabel=active
molecule="COc1ccccc1/C=C1\\CCC(CNc2ccc(Cl)cc2)C1=O (stereo unspecified)" qualitativelabel=inactive
molecule=O=C1CNc2cc(N3CCN(c4cccc(C(F)(F)F)c4)CC3)ccc2N1 qualitativelabel=inactive
molecule="COc1ccc(N2C(=O)C(N3C(=O)C=CC3=O)C2C=O)cc1 (stereo unspecified)" qualitativelabel=inactive
molecule=O=C1/C(=C/c2ccccc2)CCc2ccc(Cl)nc21 qualitativelabel=inactive
molecule=O=C(CCN(C(=O)O)S(=O)(=O)c1ccc(NC(=O)c2ccccc2)cc1)Nc1ccccc1 qualitativelabel=inactive
molecule=CC[C@H]1CN2CCc3cc(OC)c(OC)cc3[C@@H]2C[C@@H]1C[C@H]1NCCc2c1[nH]c1ccc(O)cc21 qualitativelabel=active
molecule="COc1ccc(N2C(=O)C3c4[nH]c5ccc([N+](=O)[O-])cc5c4C4CCC(C(C)(C)C)CC4C3C2=O)cc1 (stereo unspecified)" qualitativelabel=inactive
molecule=COC(=O)c1cc2c(c(C(=O)OC)c1)CCC2 qualitativelabel=inactive
molecule=COC(=O)[C@@H]1C[C@H]([Se]c2ccccc2)CN1S(=O)(=O)c1ccc(C)cc1 qualitativelabel=inactive
molecule=Cc1nnc2n1N=C(c1cc(F)c(Cl)cc1Cl)/C(=C/c1ccc(Cl)cc1)S2 qualitativelabel=inactive
molecule="CCN(CC)CC(O)CNc1ccc(NCC(O)CCl)c2c1C(=O)c1ccccc1C2=O (stereo unspecified)" qualitativelabel=inactive
molecule="C=C1C(=O)C2(C)OC2(C)C1C(=O)O (stereo unspecified)" qualitativelabel=inactive
molecule="CN/N=C(/c1nc2ccc([N+](=O)[O-])cc2nc1O)C(O)c1ccc(C(O)/C(=N\\NC)c2nc3ccc([N+](=O)[O-])cc3nc2O)cc1 (stereo unspecified)" qualitativelabel=inactive
molecule=CCOC(=O)C(=O)/C(=C/N1C(=O)CC(=O)NC1=S)C(=O)OCC qualitativelabel=inactive
molecule="O=C(O)CCC(NC(=O)c1ccccc1)C(=O)O (stereo unspecified)" qualitativelabel=inactive

###

# reported GI50; entries follow
- System: M19-MEL
- runDescription: NCI tumour cell line growth inhibition, 48 h
The source made the active and inactive calls. Rule as the data show it: active = GI50 up to about 1.1 µM and inactive = higher.
assayMetric: GI50

compound=O=C(CCN1CCOCC1)C(=Cc1ccccc1)C(=O)CCN1CCOCC1 obsvalue="2.83 µM (inactive)"
compound=COc1cc(C)c2c(c1)CN1CN2Cc2cc(OC)cc(C)c21 obsvalue="38.9 µM (inactive)"
compound="CCCC(=O)OCC1OC2OC(C)(C)OC2C2OC(C)(C)OC12 (stereo not drawn)" obsvalue="> 100 µM (inactive)"

###

- Test system: U-251
- runDescription: NCI tumour cell line growth inhibition, 48 h
Active and inactive are the calls of the source. Rule as the data show it: active = GI50 up to about 1.1 µM and inactive = higher.
Measured GI50 values are reported for all entries that follow.
assayMetric: GI50

compound=O=c1[nH]c2ccc(O)cc2o1 obsvalue="> 100 µM (inactive)"
compound="CCCC(=O)OCC1OC2OC(C)(C)OC2C2OC(C)(C)OC12 (stereo unspecified)" obsvalue="> 100 µM (inactive)"
compound=O=c1cc(/N=N/c2ccc(O)cc2)[nH]c(=O)[nH]1 obsvalue="60.8 µM (inactive)"
compound=Oc1cccc(-c2cn3cc(Cl)ccc3n2)c1 obsvalue="69.2 µM (inactive)"
compound=C(=C\c1nccs1)/c1cccc(/C=C/c2nccs2)n1 obsvalue="34.8 µM (inactive)"
compound="Cc1cccc(C)c1NC(=O)C1=NC(=S)NC(c2ccccc2)C1c1nc2ccccc2s1 (stereo unspecified)" obsvalue="> 100 µM (inactive)"
compound=COC(=O)[C@](NC(=O)OCc1ccccc1)([C@@H](C)Sc1ccc(C)cc1)C(F)(F)F obsvalue="46.9 µM (inactive)"
compound=CCc1ccccc1NC(=O)C1=C(C)NC(C)=C(C(=O)Nc2ccccc2CC)C1c1ccccc1Cl obsvalue="> 100 µM (inactive)"
compound=CC(=O)C(=C(c1ccccc1)c1ccccc1)c1ccccc1 obsvalue="> 100 µM (inactive)"
compound=COc1cc(/C=C2\Sc3scc(-c4cccc([N+](=O)[O-])c4)[n+]3C2=O)cc(OC)c1OC obsvalue="11.6 µM (inactive)"
compound=C(CCc1nnc2c(n1)CCCC2)Cc1nnc2c(n1)CCCC2 obsvalue="> 100 µM (inactive)"
